Data origin, for the record: patent US10597674B2

test system: HPPD polypeptides (wild-type SEQ ID NO:1 and mutants); details: in the presence of diketonitrile (DKN), 60 μM inhibitor, high substrate concentration; kapp normalized to kapp without inhibitor

{"molecule": "8 (protein, mutant HPPD polypeptide) MADLYENPMGLMGFEFIEFASPTPGTLEPIFEIMGFTKVATHRSKNVHLYRQGEINLILNNEPNSIASYFAAEHGPSVCGMAFRVKDSQKAYNRALELGAQPIHIDTGPMELNLPAIKGIGGAPLYLIDRFGEGSSIYDIDFVYLEGVERNPVGAGLKVIDHLTHNVYRGRMVYWANFYEKLFNFREARYFDIKGEYTGLTSKAMSAPDGMIRIPLNEESSKGAGQIEEFLMQFNGEGIQHVAFLTDDLVKTWDALKKIGMRFMTAPPDTYYEMLEGRLPDHGEPVDQLQARGILLDGSSVEGDKRLLLQIFSETLMGPVFFEFIQRKGDDGFGPDSFKVLFESIERDQVRRGVLTAD", "Residual activity (%)": 91}
